# TEST SYSTEM: DYRK3 (human)
# METHOD DESCRIPTION: radiometric filter-binding kinase assay
# SETTINGS: compound 100.0 µM; ATP 5 µM
Overview of recorded inhibition for various compounds
Form entry: value (%) — number only.

Previously resolved entries follow.
{"COMPOUND": "CC(C)(C)Nc1c(COCc2ccccc2)nc2[nH]cnn12", "ASSAY VALUE": 17}
{"COMPOUND": "COc1ccc(-c2cc3c(=O)[nH]cnc3s2)cc1OC", "ASSAY VALUE": 36}
{"COMPOUND": "O=c1cc(-c2ccccc2F)nc2[nH]ccn12", "ASSAY VALUE": 30}

Request: Return reported inhibition; argument: Cc1cccc(C)c1-c1cn2nc(N)nc2cn1
Result: 30

Request: Sample COc1ccc(NC(=S)Nc2cnc3[nH]cnn3c2=O)cn1 — what was its inhibition?
Result: 20

Request: Which inhibition is listed for O=C(Nc1cnc2[nH]ccn2c1=O)c1ccccc1 ?
Result: 18

Request: Please report the recorded inhibition for O=c1c(NC(=S)NCc2ccccc2)cnc2[nH]ccn12 .
Result: 10

Request: I would be grateful if you could share the reported inhibition for CC1CN(c2nc3ccccn3c(=O)c2N)CC(C)O1 (stereo not given) .
Result: 49

Request: I have this compound here, Nc1nc2cnc(-c3ccccc3)cn2n1 , and I need its recorded inhibition.
Result: 76

Request: Requested read-out: inhibition. Entry: O=C(Nc1cnc2[nH]cnn2c1=O)c1ccccc1
Result: 1

Request: I'd like to know its inhibition. The compound in question is Nc1cnc2c(-c3c(F)cccc3F)cccn2c1=O
Result: 12

The measured values listed here are drawn from the kinase profiling compilation of Christmann-Franck et al. (2016).
